Source: paper PMC8400343

Experiment: Rotarod test in mice
Assay type: in vivo, mouse
Conditions: mouse, in vivo; ip, log-probit method

Compound: CCC(CN1CCN(c2ccccc2OC)CC1)NCCCOc1c(C)cccc1C.Cl.Cl (stereo not shown)
TD50 at 30 min (mg/kg): 44.3

* * *

Experiment: Metabolic stability in mouse liver microsomes (MLMs)
Format: in vitro ADME
Conditions: male, CD-1, mouse, liver microsomes, pH 7.4, protein concentration 0.8
Measurement Kind: half-life at 20 µM

Compound: CCC(CN1CCN(c2ccccc2OC)CC1)NCCCOc1c(C)cccc1C.Cl.Cl (stereo not shown)
Assay Result: 25 min

* * *

Assay: MTT viability assay in HepG2 cells
Format: cell-based
Details: human, HBK-10 1 μM, % of control, read-out: Viability (% ± SEM)

Compound: CCC(CN1CCN(c2ccccc2OC)CC1)NCCCOc1c(C)cccc1C.Cl.Cl (stereo not shown)
viability at 24 h, 1 µM: 102%
